# Test details: Bioavailability in rat
# Type: ADME, organism-based
# Condition parameters: in vivo
Measured parameter: bioavailability

Report bioavailability for O=C(NCc1cc(C(F)(F)F)cc(C(F)(F)F)c1)[C@]1(c2ccccc2)CC[C@@H](N2CCC(c3ccc(F)cc3)CC2)CC1
70%

---

Here the recorded ED50 is given for each entry.
# Tested on: Gerbillinae
# Test details: Compound was evaluated for the inhibition of GR 73632-induced foot tapping in gerbils after intravenous administration at 24 hr
# Assay type: functional
# Condition parameters: read-out: ID50 (the source's name)

• CC(C(=O)N[C@]1(c2ccccc2)CC[C@@H](N2CCC3(CC2)OCCO3)CC1)c1cc(C(F)(F)F)cc(C(F)(F)F)c1 (some centres undefined) = 5.4 mg/kg
• CC(C(=O)N[C@]1(c2ccccc2)CC[C@@H](N2CCC(c3ccc(F)cc3)CC2)CC1)c1cc(C(F)(F)F)cc(C(F)(F)F)c1 (some centres undefined) = 1.8 mg/kg
• CC(C(=O)NC1(c2ccccc2)CCC(N2CCC3(CCOC3)CC2)CC1)c1cc(C(F)(F)F)cc(C(F)(F)F)c1 (centres undefined) = 1.6 mg/kg

Proceeding to the next compound to report its ED50.
Determine its reported ED50: CC(C(=O)NC1(c2ccccc2)CCC(N2CCC3(CCCO3)CC2)CC1)c1cc(C(F)(F)F)cc(C(F)(F)F)c1 (centres undefined)
3.1 mg/kg

---

# Study system: Substance-P receptor (Homo sapiens)
# Sequence (P25103 whole entry): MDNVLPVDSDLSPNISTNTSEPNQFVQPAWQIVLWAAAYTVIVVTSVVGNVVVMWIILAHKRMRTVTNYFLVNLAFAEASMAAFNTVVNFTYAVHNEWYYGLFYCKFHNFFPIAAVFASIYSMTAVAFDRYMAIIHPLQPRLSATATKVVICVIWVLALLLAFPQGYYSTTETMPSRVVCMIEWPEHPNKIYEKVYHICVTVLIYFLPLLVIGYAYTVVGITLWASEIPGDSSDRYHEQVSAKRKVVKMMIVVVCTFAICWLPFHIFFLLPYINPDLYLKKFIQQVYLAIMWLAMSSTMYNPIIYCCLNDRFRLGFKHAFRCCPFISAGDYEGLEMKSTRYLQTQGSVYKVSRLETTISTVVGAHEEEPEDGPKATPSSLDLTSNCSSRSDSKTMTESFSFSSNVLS
# Test details: Displacement of [125 I] -labelled substance P from the cloned Tachykinin receptor 1 expressed in CHO cells
Measured parameter: log10 of IC50 (log10 of the value in nM)
Note the log scale: values are log10 of IC50 expressed in nM.

// output log10 of IC50; input CC(C(=O)NC1(c2ccccc2)CCC(N2CCC3(CCCO3)CC2)CC1)c1cc(C(F)(F)F)cc(C(F)(F)F)c1 (centres undefined) ; system Substance-P receptor (Homo sapiens)
-0.66

Write down the reported log10 of IC50 (system: Substance-P receptor (Homo sapiens)) of CC(C(=O)N[C@]1(c2ccccc2)CC[C@@H](N2CCC(O)CC2)CC1)c1cc(C(F)(F)F)cc(C(F)(F)F)c1 (some centres undefined)
-0.07

Fill in log10 of IC50 for CC(C(=O)NC1(c2ccccc2)CCC(N2CCC3(CCOC3)CC2)CC1)c1cc(C(F)(F)F)cc(C(F)(F)F)c1 (centres undefined) tested with Substance-P receptor (Homo sapiens).
-0.47

---

# Study system: Voltage-gated inwardly rectifying potassium channel KCNH2 (Homo sapiens)
# Sequence (Q12809 whole entry): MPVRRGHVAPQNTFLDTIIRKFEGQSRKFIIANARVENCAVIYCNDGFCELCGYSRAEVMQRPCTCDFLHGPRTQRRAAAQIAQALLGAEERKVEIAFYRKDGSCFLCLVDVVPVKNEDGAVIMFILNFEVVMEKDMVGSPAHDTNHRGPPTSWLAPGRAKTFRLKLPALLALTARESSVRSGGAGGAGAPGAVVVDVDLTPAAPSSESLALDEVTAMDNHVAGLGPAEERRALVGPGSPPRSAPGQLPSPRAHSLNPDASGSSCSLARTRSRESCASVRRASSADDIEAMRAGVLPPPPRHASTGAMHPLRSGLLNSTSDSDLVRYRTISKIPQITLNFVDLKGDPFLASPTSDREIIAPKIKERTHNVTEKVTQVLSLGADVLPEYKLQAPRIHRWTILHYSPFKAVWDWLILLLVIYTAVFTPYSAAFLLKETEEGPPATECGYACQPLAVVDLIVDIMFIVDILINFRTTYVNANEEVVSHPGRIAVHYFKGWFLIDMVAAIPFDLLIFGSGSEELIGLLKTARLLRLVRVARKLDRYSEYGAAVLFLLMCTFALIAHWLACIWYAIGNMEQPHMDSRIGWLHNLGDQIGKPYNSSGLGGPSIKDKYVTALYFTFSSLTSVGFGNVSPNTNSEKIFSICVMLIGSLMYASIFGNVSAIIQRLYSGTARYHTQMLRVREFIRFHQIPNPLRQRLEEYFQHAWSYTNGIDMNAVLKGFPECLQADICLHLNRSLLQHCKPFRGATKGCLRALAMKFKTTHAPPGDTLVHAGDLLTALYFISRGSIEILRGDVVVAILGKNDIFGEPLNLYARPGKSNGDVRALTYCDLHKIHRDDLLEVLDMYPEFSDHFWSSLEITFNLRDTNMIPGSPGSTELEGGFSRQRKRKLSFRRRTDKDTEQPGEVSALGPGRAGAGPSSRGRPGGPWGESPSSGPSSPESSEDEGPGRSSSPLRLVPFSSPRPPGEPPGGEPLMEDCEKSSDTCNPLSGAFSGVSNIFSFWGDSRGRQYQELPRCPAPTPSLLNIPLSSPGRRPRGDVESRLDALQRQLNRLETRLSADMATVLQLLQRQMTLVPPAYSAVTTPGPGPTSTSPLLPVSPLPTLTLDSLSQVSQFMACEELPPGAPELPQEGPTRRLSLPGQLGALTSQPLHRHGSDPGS
# Test details: Compound was evaluated for the displacement of labelled MK-499 from the cloned channel expressed in HEK cells (Ikr channel)
# Type: cell-based, HEK293
Sorting guide: entries reporting Ki beneath 500 nM go in the met pile, the rest go in the not met pile.

Illustrative cases are given below, each with its answer.
- CC(C(=O)NC1(c2ccccc2)CCC(N2CCC(O)(Cc3ccccc3)CC2)CC1)c1cc(C(F)(F)F)cc(C(F)(F)F)c1 (stereo not drawn): met
- CC(C(=O)NC1(c2ccccc2)CCC(N2CCC3(CC2)CCC(C)(C)O3)CC1)c1cc(C(F)(F)F)cc(C(F)(F)F)c1 (stereo not drawn): not met
- CC(C(=O)NC1(c2ccccc2)CCC(N2CCC3(CCC(=O)O3)CC2)CC1)c1cc(C(F)(F)F)cc(C(F)(F)F)c1 (stereo not drawn): met
- CC(C(=O)NC1(c2ccccc2)CCC(N2CCC3(CCCO3)CC2)CC1)c1cc(C(F)(F)F)cc(C(F)(F)F)c1 (stereo not drawn): not met
- CC(C(=O)N[C@]1(c2ccccc2)CC[C@@H](N2CCC(O)CC2)CC1)c1cc(C(F)(F)F)cc(C(F)(F)F)c1 (stereo partly drawn): not met

Regarding CC1CCN([C@H]2CC[C@](NC(=O)C(C)c3cc(C(F)(F)F)cc(C(F)(F)F)c3)(c3ccccc3)CC2)CC1 (stereo partly drawn) , kindly confirm whether its Ki is beneath 500 nM.
met

Consider CC(C(=O)N[C@]1(c2ccccc2)CC[C@@H](N2CCC(c3ccc(F)cc3)CC2)CC1)c1cc(C(F)(F)F)cc(C(F)(F)F)c1 (stereo partly drawn) . Does its Ki lie strictly below 500 nM?
met

---

# Study system: UniProtKB P25103
# Test details: Displacement of [125 I] -labelled substance P from the cloned Tachykinin receptor 1 expressed in CHO cells
# Assay type: cell-based
# label = T if IC50 < 0.4 nM else F

Hi there! Is IC50 for CC(C(=O)NC1(c2ccccc2)CCC(N2CCC(O)(Cc3ccccc3)CC2)CC1)c1cc(C(F)(F)F)cc(C(F)(F)F)c1 (stereo unspecified) below 0.4 nM, do you know?
T

---

A collection of compounds and their measured IC50
# Study system: Substance-P receptor (Homo sapiens)
# Test details: Displacement of [125 I] -labelled substance P from the cloned Tachykinin receptor 1 expressed in CHO cells
# Assay type: cell-based
Give the value in nM but do not write nM after it.

Before answering, review these 3 worked examples.
- CC(C(=O)N[C@]1(c2ccccc2)CC[C@@H](N2CCN(C(C)C)CC2)CC1)c1cc(C(F)(F)F)cc(C(F)(F)F)c1 (stereo not given in full): 0.39
- CC(C(=O)N[C@]1(c2ccccc2)CC[C@H](N2CCCCC2)CC1)c1cc(C(F)(F)F)cc(C(F)(F)F)c1 (stereo not given in full): 2.4
- CC(C(=O)N[C@]1(c2ccccc2)CC[C@@H](N2CCC3(CC2)OCCO3)CC1)c1cc(C(F)(F)F)cc(C(F)(F)F)c1 (stereo not given in full): 0.3

Note IC50 for the compound shown: CC1CCN([C@H]2CC[C@](NC(=O)C(C)c3cc(C(F)(F)F)cc(C(F)(F)F)c3)(c3ccccc3)CC2)CC1 (stereo not given in full)
1.2

---

# Study system: Substance-P receptor (Homo sapiens)
# Test details: Displacement of [125 I] -labelled substance P from the cloned Tachykinin receptor 1 expressed in CHO cells
Attribute: pIC50
pIC50 field: float, defined as -log10 of concentration (mol/L).

Consider the following illustrative entries.
• O=C(NCc1cc(C(F)(F)F)cc(C(F)(F)F)c1)[C@]1(c2ccccc2)CC[C@@H](N2CCC(c3ccc(F)cc3)CC2)CC1 = 9.47
• CC(C(=O)N[C@]1(c2ccccc2)CC[C@@H](N2CCC(=O)CC2)CC1)c1cc(C(F)(F)F)cc(C(F)(F)F)c1 (stereo partly specified) = 8.80
• CC(C(=O)NC1(c2ccccc2)CCC(N2CCC3(CC2)CCC(C)(C)O3)CC1)c1cc(C(F)(F)F)cc(C(F)(F)F)c1 (stereo unspecified) = 9.46
• CC(C(=O)NC1(c2ccccc2)CCC(N2CCC3(CCC(=O)O3)CC2)CC1)c1cc(C(F)(F)F)cc(C(F)(F)F)c1 (stereo unspecified) = 8.68
• CC(C(=O)NC1(c2ccccc2)CCC(N2CCC3(CCOC3=O)CC2)CC1)c1cc(C(F)(F)F)cc(C(F)(F)F)c1 (stereo unspecified) = 9.38

Give a short answer stating reported pIC50 for CC(C(=O)N[C@]1(c2ccccc2)CC[C@H](N(C)C)CC1)c1cc(C(F)(F)F)cc(C(F)(F)F)c1 (stereo partly specified) .
7.66
